# target-of-assay: AMPKγ1 (Homo sapiens, UniProt P54619)
# Sequence (P54619 whole entry, the tested form may be a part): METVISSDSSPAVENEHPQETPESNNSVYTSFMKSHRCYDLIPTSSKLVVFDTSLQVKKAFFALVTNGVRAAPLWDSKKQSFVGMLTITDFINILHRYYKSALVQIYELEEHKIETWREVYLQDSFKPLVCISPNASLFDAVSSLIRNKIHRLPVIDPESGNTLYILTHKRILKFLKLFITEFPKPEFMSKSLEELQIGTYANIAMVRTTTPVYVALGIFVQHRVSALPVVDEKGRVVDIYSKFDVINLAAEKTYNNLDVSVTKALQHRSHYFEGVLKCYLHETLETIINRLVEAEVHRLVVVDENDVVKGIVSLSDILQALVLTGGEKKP
# assay-summary: [3H]AMP binding to GST fusion protein
observable: pIC50
Numbers only, as −log10 of the molar value.

Requested field: pIC50. Item: Nc1ncnc2c1ncn2[C@@H]1O[C@H](COP(=O)(O)O)[C@@H](O)[C@H]1O [AMP]
5.72

Hey, just so you know, these numbers are from paper PMC8462099.
